# Test system: Zika virus NS2B-NS3 protease (unlinked)
# ASSAY REMARKS: Optimization of GU AMC qHTS for Zika virus inhibitors: Unlinked NS2B-NS3 protease assay (AID 1347151); note: nearly all actives have a fitted effect of over 80% in size; note: potency is the fitted concentration of half-maximal effect
# MEASUREMENT PARAMETERS: recombinant ZIKV NS2B-NS3 protease, fluorogenic AMC substrate; series mostly up to 52.5 µM
# From the text: Avindra Nath, Ph.D., National Institute of Neurological Disorders and Stroke (NINDS), Bethesda, MD Radhakrishnan Padmanabhan, Ph.D., Georgetown University (GU), Washington D.C. Zika Virus causes congenital defects, including microcephaly and is associated with Guillain-Barre syndrome, eningoencephalitis and myelitis in infected adult. […]
Results filed as inconclusive are left out. Calls of active or inactive are those of the source. Calls come from the whole dose curve; as a rule, active = well fitted inhibition curve with a large enough effect; inconclusive = small, poorly fitted or top-dose-only effect; inactive = no such curve, though single readings can be large or run the other way.
ENDPOINT: Potency

// worked examples, Potency included
{"columns": ["MOLECULE", "Potency"],
 "data": [
  ["Cc1nc(N=Nc2ccc(S(=O)(=O)O)cc2S(=O)(=O)O)c(COP(=O)(O)O)c(C=O)c1O", "inactive"],
  ["O=C1Nc2ccc(I)cc2/C1=C/c1cc(Br)c(O)c(Br)c1", "5.97 µM (active)"],
  ["Cc1cccc(C2CN(C)CCc3c2cc(O)c(O)c3Cl)c1 (stereo unspecified)", "inactive"],
  ["CC(N)(Cc1ccc(O)c(O)c1)C(=O)O (stereo unspecified)", "inactive"]
]}

Required: Potency, one value per molecule below.
1. CNc1cc(NS(=O)(=O)c2ccc(N)cc2)nc(NC)n1
2. Nc1ncnc2c1ncn2C1CCCO1 (stereo unspecified)

**A:**
1: inactive; 2: inactive

Source listed as PubChem BioAssay (NCATS).
